All values here come from paper PMC7419507.

- protocolSummary: Cytotoxicity assay (CellTiter-Glo, 72 h), SKOV-3
- Assay type: cell-based, human
- conditionParameters: human, SKOV-3 cells (ovarian adenocarcinoma), conc 25 uM; raw replicate data; read-out: SKOV3 viability (%)
Class key for viability at 72 h, 25 uM values: Low = under 50%, Mid = from 50% up to 70%, High = 70% and over

Ask | Class label required: CO[C@H]1C[C@@H]2CC[C@@H](C)[C@@](O)(O2)C(=O)C(=O)N2CCCC[C@H]2C(=O)O[C@H]([C@H](C)C[C@@H]2CC[C@@H](O)[C@H](OC)C2)CC(=O)[C@H](C)/C=C(\C)[C@@H](O)[C@@H](OC)C(=O)[C@H](C)C[C@H](C)/C=C/C=C/C=C/1C [Compound 1, rapamycin, reference compound]
Reply | Mid

Ask | Class label required: CO[C@@H]1C[C@H](C[C@@H](C)[C@@H]2CC(=O)[C@H](C)/C=C(\C)[C@@H](O)[C@@H](OC)C(=O)[C@H](C)C[C@H](C)/C=C/C=C/C=C(\C)[C@H](O)C[C@@H]3CC[C@@H](C)[C@@](O)(O3)C(=O)C(=O)N3CCCC[C@H]3C(=O)O2)CC[C@H]1O [Compound 17, (16R)-16-O-demethyl rapamycin]
Reply | Mid

Ask | Class label required: `CO[C@H]1C[C@@H]2CC[C@@H](C)[C@@](O)(O2)C(=O)C(=O)N2CCCC[C@H]2C(=O)O[C@H]([C@H](C)C[C@@H]2CC[C@@H](O)[C@H](OC)C2)CC(=O)[C@H](C)/C=C(\C)[C@@H](O)CC[C@H](C)/C=C/C=C/C=C/1C`
Reply | Low

----------
- protocolSummary: Cytotoxicity assay (CellTiter-Glo, 72 h), SKOV-3
- Assay type: cell-based, human
- conditionParameters: human, SKOV-3 cells (ovarian adenocarcinoma), conc 0.390625 uM; raw replicate data; read-out: SKOV3 viability (%)
Threshold 80%: viability at 72 h, 0.390625 uM strictly smaller gives fulfilled, otherwise not fulfilled.

COC1CC2CCC(C)C(O)(O2)C(=O)C(=O)N2CCCCC2C(=O)OC(C(C)CC2CCC(O)C(OC)C2)CC(O)CC(=O)C(C)C=C(C)C(O)CC(=O)C(C)CC(C)C=CC=CC=C1C (centres unmarked)    fulfilled

Ask | For COC1CC2CCC(C)C(O)(O2)C(=O)C(=O)N2CCCCC2C(=O)OC(C(C)CC2CCC(O)C(OC)C2)CC(=O)C(C)C=C(C)C(O)C(OC)C(=O)C(C)CC(C)C=CCCC=C1C (centres unmarked) , is the recorded viability at 72 h, 0.390625 uM below the cut-off of 80%?
Reply | not fulfilled

Ask | For CO[C@H]1C[C@@H]2CC[C@@H](C)[C@@](O)(O2)C(=O)C(=O)N2CCCC[C@H]2C(=O)O[C@H]([C@H](C)C[C@@H]2CC[C@@H](O)[C@H](OC)C2)CC(=O)[C@H](C)/C=C(\C)[C@@H](O)[C@@H](OC)C(=O)[C@H](C)C[C@H](C)/C=C/C=C/C=C/1C [Compound 1, rapamycin, reference compound] , is the recorded viability at 72 h, 0.390625 uM below the cut-off of 80%?
Reply | fulfilled

Ask | For COC1CC2CCC(C)C(O)(O2)C(=O)C(=O)N2CCCCC2C(=O)OC(C(C)CC2CCC(O)C(OC)C2)CC(=O)C(C)C=C(C)C(O)CC(=O)C(C)C=C(C)C=CC=CC=C1C (centres unmarked) , is the recorded viability at 72 h, 0.390625 uM below the cut-off of 80%?
Reply | not fulfilled

----------
The following compounds are listed with their measured viability at 72 h, 0.000190735 uM values.
- protocolSummary: Cytotoxicity assay (CellTiter-Glo, 72 h), MESO-1
- Format: cell-based
- conditionParameters: human, MESO-1 malignant pleural mesothelioma cells, conc 0.000190735 uM; raw replicate data; read-out: MESO1 viability (%)

CO[C@H]1C[C@@H]2CC[C@@H](C)[C@@](O)(O2)C(=O)C(=O)N2CCCC[C@H]2C(=O)O[C@H]([C@H](C)C[C@@H]2CC[C@@H](O)[C@H](OC)C2)CC(=O)[C@H](C)/C=C(\C)[C@@H](O)CC[C@H](C)/C=C/C=C/C=C/1C [Compound 7]    92.7%
CO[C@H]1C[C@@H]2CC[C@@H](C)[C@@](O)(O2)C(=O)C(=O)N2CCCC[C@H]2C(=O)O[C@H]([C@H](C)C[C@@H]2CC[C@@H](O)[C@H](OC)C2)CC(=O)[C@H](C)/C=C(\C)[C@@H](O)[C@@H](OC)C(=O)[C@H](C)C[C@H](C)/C=C/C=C/C=C/1C [Compound 1, rapamycin, reference compound]    73.6%
COC1CC2CCC(C)C(O)(O2)C(=O)C(=O)N2CCCCC2C(=O)OC(C(C)CC2CCC(O)C(OC)C2)CCC(C)C=C(C)C(O)C(OC)C(=O)C(C)CC(C)C=CC=CC=C1C (stereo not drawn) [Compound 16, 32-desketorapamycin]    86.2%

Ask | Look up viability at 72 h, 0.000190735 uM: COC1CC2CCC(C)C(O)(O2)C(=O)C(=O)N2CCCCC2C(=O)OC(C(C)CC2CCC(O)C(OC)C2)CC(O)CC(=O)C(C)C=C(C)C(O)CC(=O)C(C)CC(C)C=CC=CC=C1C (stereo not drawn) [Compound 13]
Reply | 109%

Ask | Look up viability at 72 h, 0.000190735 uM: COC1CC2CCC(C)C(O)(O2)C(=O)C(=O)N2CCCCC2C(=O)OC(C(C)CC2CCC(O)C(OC)C2)CC(=O)C(C)C=C(C)C(O)C(OC)C(=O)C(C)CC(C)C=CCCC=C1C (stereo not drawn) [Compound 15, 19,20-dihidro-rapamycin]
Reply | 92%

----------
- protocolSummary: Cytotoxicity assay (CellTiter-Glo, 72 h), MESO-1
- Assay type: cell-based
- conditionParameters: human, MESO-1 malignant pleural mesothelioma cells, conc 3.125 uM; raw replicate data; read-out: MESO1 viability (%)
metricName: viability at 72 h, 3.125 uM (%)
Write the answer as a number in %, unit excluded.

Solved entries (count: 3):
CO[C@H]1C[C@@H]2CC[C@@H](C)[C@@](O)(O2)C(=O)C(=O)N2CCCC[C@H]2C(=O)O[C@H]([C@H](C)C[C@@H]2CC[C@@H](O)[C@H](OC)C2)CC(=O)[C@H](C)/C=C(\C)[C@@H](O)CC[C@H](C)/C=C/C=C/C=C/1C    60.8
CO[C@@H]1/C=C/C=C/[C@@H](C)C[C@@H](C)C(=O)C[C@H](O)/C(C)=C/[C@@H](C)C(=O)C[C@@H]([C@H](C)C[C@@H]2CC[C@@H](O)[C@H](OC)C2)OC(=O)[C@@H]2CCCCN2C(=O)C(=O)[C@]2(O)O[C@@H](CC[C@H]2C)C1    65.2
COC1CC2CCC(C)C(O)(O2)C(=O)C(=O)N2CCCCC2C(=O)OC(C(C)CC2CCC(O)C(OC)C2)CCC(C)C=C(C)C(O)C(OC)C(=O)C(C)CC(C)C=CC=CC=C1C (stereo not shown)    67.9

Ask | Look up viability at 72 h, 3.125 uM: `CO[C@H]1C[C@@H]2CC[C@@H](C)[C@@](O)(O2)C(=O)C(=O)N2CCCC[C@H]2C(=O)O[C@H]([C@H](C)C[C@@H]2CC[C@@H](O)[C@H](OC)C2)CC(=O)[C@H](C)/C=C(\C)[C@@H](O)CC(=O)[C@H](C)C[C@H](C)/C=C/C=C(C)/C=C/1C`
Reply | 97.7

----------
- protocolSummary: Cytotoxicity assay (CellTiter-Glo, 72 h), MESO-1
- Format: cell-based
- conditionParameters: human, MESO-1 malignant pleural mesothelioma cells, conc 0.00305176 uM; raw replicate data; read-out: MESO1 viability (%)
The following molecules are listed with their measured viability at 72 h, 0.00305176 uM values.
Write the answer as a number in %, unit excluded.

CO[C@@H]1C[C@H](C[C@@H](C)[C@@H]2CC(=O)[C@H](C)/C=C(\C)[C@@H](O)[C@@H](OC)C(=O)[C@H](C)C[C@H](C)/C=C/C=C/C=C(\C)[C@H](O)C[C@@H]3CC[C@@H](C)[C@@](O)(O3)C(=O)C(=O)N3CCCC[C@H]3C(=O)O2)CC[C@H]1O [Compound 17, (16R)-16-O-demethyl rapamycin]    92.9

Ask | Look up viability at 72 h, 0.00305176 uM: CO[C@@H]1/C=C/C=C/[C@@H](C)C[C@@H](C)C(=O)C[C@H](O)/C(C)=C/[C@@H](C)C(=O)C[C@@H]([C@H](C)C[C@@H]2CC[C@@H](O)[C@H](OC)C2)OC(=O)[C@@H]2CCCCN2C(=O)C(=O)[C@]2(O)O[C@@H](CC[C@H]2C)C1 [Compound 9]
Reply | 92.4

Ask | Look up viability at 72 h, 0.00305176 uM: CO[C@H]1C[C@@H]2CC[C@@H](C)[C@@](O)(O2)C(=O)C(=O)N2CCCC[C@H]2C(=O)O[C@H]([C@H](C)C[C@@H]2CC[C@@H](O)[C@H](OC)C2)CC(=O)[C@H](C)/C=C(\C)[C@@H](O)[C@@H](OC)C(=O)[C@H](C)C[C@H](C)/C=C/C=C/C=C/1C [Compound 1, rapamycin, reference compound]
Reply | 69.5
